Target desc: lysosomal mannosidase (Homo sapiens, UniProt O00754)
Sequence (O00754 50-1011): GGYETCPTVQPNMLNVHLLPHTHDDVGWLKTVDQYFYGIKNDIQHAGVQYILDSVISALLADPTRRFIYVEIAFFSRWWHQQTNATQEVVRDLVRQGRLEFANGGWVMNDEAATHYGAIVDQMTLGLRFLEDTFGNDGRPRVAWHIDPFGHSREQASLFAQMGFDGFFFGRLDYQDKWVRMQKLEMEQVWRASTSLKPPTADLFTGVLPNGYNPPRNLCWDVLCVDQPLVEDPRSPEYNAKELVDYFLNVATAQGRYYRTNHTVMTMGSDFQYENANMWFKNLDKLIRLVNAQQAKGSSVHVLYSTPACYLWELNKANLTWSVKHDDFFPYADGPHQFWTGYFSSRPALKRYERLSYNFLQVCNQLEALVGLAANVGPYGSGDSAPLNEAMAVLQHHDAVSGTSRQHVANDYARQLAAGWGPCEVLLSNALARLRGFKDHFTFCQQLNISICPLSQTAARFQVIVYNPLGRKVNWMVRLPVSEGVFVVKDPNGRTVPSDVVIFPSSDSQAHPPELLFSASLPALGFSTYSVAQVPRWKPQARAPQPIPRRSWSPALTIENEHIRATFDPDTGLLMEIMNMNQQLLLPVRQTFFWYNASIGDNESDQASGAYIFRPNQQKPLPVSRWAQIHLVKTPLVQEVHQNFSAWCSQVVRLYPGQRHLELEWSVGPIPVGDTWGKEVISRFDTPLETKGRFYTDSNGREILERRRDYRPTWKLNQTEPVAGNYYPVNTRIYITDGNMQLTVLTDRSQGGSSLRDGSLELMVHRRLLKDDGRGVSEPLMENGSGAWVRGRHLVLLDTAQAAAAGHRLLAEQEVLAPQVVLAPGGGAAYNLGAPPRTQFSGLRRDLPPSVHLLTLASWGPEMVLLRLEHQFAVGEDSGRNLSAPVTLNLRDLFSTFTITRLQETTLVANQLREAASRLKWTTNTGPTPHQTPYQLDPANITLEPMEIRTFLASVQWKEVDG
pIC50: −log10 of the molar value.

Compound | Target desc | pIC50
Cl.O[C@H]1[C@H]2[C@H](O)CCCN2C[C@@H]1O [swainsonine hydrochloride] | lysosomal mannosidase (Homo sapiens, UniProt O00754) | 7.35

---

Method notes: Solubility in distilled water at room temperature
Assay type: physicochemical
Condition summary: distilled water, water, Table 5

Smiles repr | Unit tag | solubility
O[C@H]1[C@H]2[C@H](O)CCCN2C[C@H]1O | mg/mL | 800

---

Target desc: purified rat liver Golgi mannosidase II (Rattus norvegicus)
Sequence (P28494 1-1148): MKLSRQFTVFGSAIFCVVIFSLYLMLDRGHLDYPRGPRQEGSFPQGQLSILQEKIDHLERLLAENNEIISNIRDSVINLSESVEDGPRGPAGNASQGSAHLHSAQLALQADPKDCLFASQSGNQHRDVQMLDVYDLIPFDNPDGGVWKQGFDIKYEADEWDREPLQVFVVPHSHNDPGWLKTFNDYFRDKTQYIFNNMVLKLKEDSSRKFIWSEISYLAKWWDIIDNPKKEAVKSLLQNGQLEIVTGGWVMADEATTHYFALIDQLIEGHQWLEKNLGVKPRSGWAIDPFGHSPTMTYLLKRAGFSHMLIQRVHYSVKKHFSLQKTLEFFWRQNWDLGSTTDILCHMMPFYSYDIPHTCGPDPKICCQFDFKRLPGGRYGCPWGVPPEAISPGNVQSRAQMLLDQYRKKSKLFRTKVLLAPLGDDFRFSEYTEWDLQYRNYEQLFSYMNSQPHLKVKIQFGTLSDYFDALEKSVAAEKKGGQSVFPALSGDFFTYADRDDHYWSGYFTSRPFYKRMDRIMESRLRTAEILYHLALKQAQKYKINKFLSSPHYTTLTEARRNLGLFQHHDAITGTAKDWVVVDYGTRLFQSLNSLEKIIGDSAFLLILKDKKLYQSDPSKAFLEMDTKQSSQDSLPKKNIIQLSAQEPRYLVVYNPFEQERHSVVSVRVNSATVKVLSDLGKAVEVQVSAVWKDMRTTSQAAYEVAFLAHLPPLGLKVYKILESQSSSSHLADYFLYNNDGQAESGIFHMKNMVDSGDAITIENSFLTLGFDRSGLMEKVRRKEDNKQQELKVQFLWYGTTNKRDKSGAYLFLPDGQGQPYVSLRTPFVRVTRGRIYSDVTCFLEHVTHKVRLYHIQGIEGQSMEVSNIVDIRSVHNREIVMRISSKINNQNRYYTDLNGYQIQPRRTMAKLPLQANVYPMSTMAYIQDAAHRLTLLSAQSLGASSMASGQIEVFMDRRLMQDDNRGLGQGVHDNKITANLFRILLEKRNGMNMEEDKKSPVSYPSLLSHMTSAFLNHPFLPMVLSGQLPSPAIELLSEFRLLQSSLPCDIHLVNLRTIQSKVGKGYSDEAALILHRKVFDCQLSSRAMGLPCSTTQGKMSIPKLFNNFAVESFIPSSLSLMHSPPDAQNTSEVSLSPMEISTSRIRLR
pIC50: −log10 of the molar value.
Observed property: pIC50

Compound | Target desc | Readout value
Cl.O[C@H]1[C@H]2[C@H](O)CCCN2C[C@@H]1O [swainsonine hydrochloride] | purified rat liver Golgi mannosidase II (Rattus norvegicus) | 7.17
